Would you kindly list Bliss excess for each of these molecules?
# Tested on: M059J (Glioblastoma);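 further: after 72 h of two-drug dosing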
# ASSAY_PROTOCOL: Bliss excess, mean over the matrix (fraction); higher = more synergy
The reply should be a number, written without any unit.

[ask] Quick one: Bliss excess of CN(CCO)CC[C@H](CSc1ccccc1)Nc1ccc(S(=O)(=O)NC(=O)c2ccc(N3CCC([C@@H](O)c4ccccc4-c4ccc(Cl)cc4)CC3)cc2)cc1S(=O)(=O)C(F)(F)F [AZD4320] + C[C@@H](Nc1cc(F)cc(F)c1)c1cc(C(=O)N(C)C)cc2c(=O)cc(N3CCOCC3)oc12 [AZD8186] (first compound max 1 µM, 7x7, partner max 3 µM) ?
[reply] 0.0316

[ask] Same read-out for NC1(C(=O)N[C@@H](CCO)c2ccc(Cl)cc2)CCN(c2ncnc3[nH]ccc23)CC1 [Capivasertib] + CCN(CCO)CCCOc1ccc2c(Nc3cc(CC(=O)Nc4cccc(F)c4)[nH]n3)ncnc2c1 [AZD2811] (first compound max 10 µM, 7x7, partner max 1 µM) ?
[reply] -0.0328

[ask] Same read-out for CC(=O)Nc1cccc(-n2c(=O)n(C3CC3)c(=O)c3c(Nc4ccc(I)cc4F)n(C)c(=O)c(C)c32)c1 [Trametinib] + Cc1nc(-c2cn3c(n2)-c2ccc(-c4cnn(C(C)(C)C(N)=O)c4)cc2OCC3)n(C(C)C)n1 [Taselisib] (first compound max 1 µM, 7x7, partner max 10 µM) ?
[reply] 0.0493

[ask] Same read-out for C[C@@H](c1ccc2nccn2c1)n1nnc2ncc(-c3cnn(C)c3)nc21 [Savolitinib] + CC1(C)CCC(CN2CCN(c3ccc(C(=O)NS(=O)(=O)c4ccc(NCC5CCOCC5)c([N+](=O)[O-])c4)c(Oc4cnc5[nH]ccc5c4)c3)CC2)=C(c2ccc(Cl)cc2)C1 [Venetoclax] (first compound max 1 µM, 7x7, partner max 1 µM) ?
[reply] -0.0321

[ask] Same read-out for COc1nnc2ccc(N3CCC(c4ccc(OCCN5CCN(C)C(=O)[C@H]5C)cc4)CC3)nn12 [AZD5153] + Cn1cnc2c(F)c(Nc3ccc(Br)cc3Cl)c(C(=O)NOCCO)cc21 [Selumetinib] (first compound max 1 µM, 7x7, partner max 10 µM) ?
[reply] -0.0635

[ask] Same read-out for Cc1c2c(nn1C)CSCc1cc(n(C)n1)CSc1cc(c3ccccc3c1)OCCCc1c(C(=O)O)n(C)c3c-2c(Cl)ccc13 [AZD5991] + CN(C)CCCOc1ccc(-c2ccc3ncc4c(c3c2)n(C2CCOCC2)c(=O)n4C)cn1 [AZD0156] (first compound max 1 µM, 7x7, partner max 1 µM) ?
[reply] 0.006

[ask] Same read-out for COc1cccc(OCCCN)c1-c1cc(Nc2cnc(C#N)cn2)n[nH]1 [Prexasertib] + O=C(c1cc(Cc2n[nH]c(=O)c3ccccc23)ccc1F)N1CCN(C(=O)C2CC2)CC1 [Olaparib] (first compound max 1 µM, 7x7, partner max 10 µM) ?
[reply] -0.0643

* * *

# Test system: MOLM-13 (Acute Myeloid Leukemia)
# ASSAY_PROTOCOL: combination Emax (second highest fraction inhibited in the dose matrix, 72 h); higher = more inhibition; extreme values may be limits of the assay
ASSAY_READOUT: combination Emax

[ask] Quick one: combination Emax of CN(CCO)CC[C@H](CSc1ccccc1)Nc1ccc(S(=O)(=O)NC(=O)c2ccc(N3CCC([C@@H](O)c4ccccc4-c4ccc(Cl)cc4)CC3)cc2)cc1S(=O)(=O)C(F)(F)F [AZD4320] + CCN(CCO)CCCOc1ccc2c(Nc3cc(CC(=O)Nc4cccc(F)c4)[nH]n3)ncnc2c1 [AZD2811] (first compound max 1 µM, 7x7, partner max 1 µM) ?
[reply] 1

[ask] Same read-out for C=CCn1c(=O)c2cnc(Nc3ccc(N4CCN(C)CC4)cc3)nc2n1-c1cccc(C(C)(C)O)n1 [AZD1775] + C1CN(CCC1(C(=O)N[C@@H](CCO)C2=CC=C(C=C2)Cl)N)C3=NC=NC4=C3C=CN4 [Capivasertib] (first compound max 3 µM, partner max 3 µM) ?
[reply] 1

[ask] Same read-out for COc1cccc(OCCCN)c1-c1cc(Nc2cnc(C#N)cn2)n[nH]1 [Prexasertib] + O=C(c1cc(Cc2n[nH]c(=O)c3ccccc23)ccc1F)N1CCN(C(=O)C2CC2)CC1 [Olaparib] (first compound max 1 µM, 7x7, partner max 10 µM) ?
[reply] 1
